- system_under_test: UniProt Q8H103
- Sequence (Q8H103 49-613): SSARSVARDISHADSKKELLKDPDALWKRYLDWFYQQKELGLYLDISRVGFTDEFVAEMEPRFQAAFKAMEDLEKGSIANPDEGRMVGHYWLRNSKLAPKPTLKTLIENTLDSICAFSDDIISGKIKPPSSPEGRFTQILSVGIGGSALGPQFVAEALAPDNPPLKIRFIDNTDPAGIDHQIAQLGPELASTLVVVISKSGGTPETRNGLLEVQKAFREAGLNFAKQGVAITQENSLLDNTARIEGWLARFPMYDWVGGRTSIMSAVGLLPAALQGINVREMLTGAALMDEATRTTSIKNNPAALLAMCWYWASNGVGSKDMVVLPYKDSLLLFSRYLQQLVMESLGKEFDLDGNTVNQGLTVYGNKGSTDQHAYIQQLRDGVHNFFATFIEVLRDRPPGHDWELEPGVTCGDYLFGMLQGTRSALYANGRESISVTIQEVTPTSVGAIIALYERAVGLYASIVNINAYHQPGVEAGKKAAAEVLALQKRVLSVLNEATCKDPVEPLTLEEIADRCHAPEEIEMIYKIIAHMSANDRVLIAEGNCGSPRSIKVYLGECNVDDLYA
- experiment: coupled spectrophotometric assay
- Type: biochemical
pKi: −log10 of the molar value.
Listed here are compounds together with their documented pKi.

compound | system_under_test | pKi
O=C(O)[C@H](O)[C@@H](O)[C@H](O)[C@H](O)COP(=O)(O)O [6-phosphogluconic acid] | UniProt Q8H103 | 4.51
O=C[C@H](O)[C@H](O)COP(=O)(O)O [erythrose 4-phosphate] | UniProt Q8H103 | 5.64
